Ref: PubChem BioAssay (NCI)

- Tested on: SN12C renal
- measurement-notes: NCI-60 one-dose screen, 48 h
- test-context: 10 µM unless noted
The panel holds about 83,000 compounds, 20% with a hit somewhere; the sample as a whole holds those more often. Activity calls are given as the source filed them. The calls were made as follows: active = growth percent below 10; inactive = the rest.
Answer with one of the outcomes given here: yes = active, no = inactive

IN: Record lookup: outcome of this test for CN1CCN(Cc2ccc(NC(=O)c3cncc(C#Cc4cncc5nccnc45)c3)cc2C(F)(F)F)CC1 ?
OUT: no

Others:
IN: Could you kindly confirm the outcome this assay logged for COc1ccc(/C=C/C(=O)c2ccc(NC(=O)c3cc4cc5ccccc5nc4s3)cc2)cc1OC ?
OUT: no

IN: Assay outcome for CC1CN(Cc2ccco2)C(=S)N(c2ccccc2)C1=O (stereo not given) : what was it?
OUT: no

IN: # fetch the recorded call for C[C@@]1(N2C(=O)OC[C@@H]2c2ccccc2)C(=O)N([C@H](CC(=O)N2CCC(N3CCCCC3)CC2)C(=O)NCc2cccc(C(F)(F)F)c2)[C@@H]1/C=C/c1ccccc1 here
OUT: no

IN: Recorded call for C=C1CCC2C3(C)COC(c4ccccc4Br)OC3CCC2(C)C1C/C=C1/C(=O)OCC1OC(C)=O (stereo not given) ?
OUT: yes

IN: Hi team, can someone confirm the assay call for CCCCCCCCCCCCS(=O)CC(C)O (stereo not given) ?
OUT: no

IN: Record lookup: outcome of this test for O=C(Nc1ccc(Oc2ccc(F)cc2)c(Cl)c1)c1cccnc1 ?
OUT: no

IN: Hi team, can someone confirm the assay call for CN(C)CCCC(=O)Nc1ccc(Cn2nnc3c2C(=O)c2nnn(Cc4ccc(NC(=O)CCCN(C)C)cc4)c2C3=O)cc1 ?
OUT: yes

IN: Please state the recorded outcome for this compound: O=C(CN1CCN(c2cc3c(cc2F)c(=O)c(C(=O)N/N=C/c2ccccc2)cn3C2CC2)CC1)N/N=C\c1ccccc1
OUT: no

IN: Could you please tell me the result logged for Cc1cc(Nc2nc(N3CCN(C)CC3)nc3ccccc23)n[nH]1 in this assay?
OUT: no

IN: GET /call?item= CSc1[nH]c2ncnc(N)c2c1C#N returns the recorded outcome of this test.
OUT: no

IN: Outcome logged for Cc1cc(=O)oc2cc(Oc3nc(-c4cccs4)cn4c(-c5cccs5)cnc34)ccc12 in this assay:
OUT: no

IN: I'd appreciate the recorded outcome for O=C(COCc1c(-c2ccccc2)no[n+]1[O-])Nc1ccc(C(=O)/C=C/c2ccc3c(c2)OCO3)cc1 from this test.
OUT: no

IN: Assay outcome for CCN(CC)c1ccc(/C=C/C2=[N+](C)c3ccccc3C2(C)C)cc1 : what was it?
OUT: yes

IN: Please indicate how the test categorized CCCCCCCCCCCCN1CCCC(C)C1 (stereo not given) .
OUT: no

IN: Answer briefly: the call reported for O=C1/C(=C/c2ccc(F)cc2)CN(C(=O)CCN2CCC(=NO)CC2)C/C1=C\c1ccc(F)cc1 in this assay.
OUT: yes

----------
- Test system: HT29 colon
- measurement-notes: NCI-60 one-dose screen, 48 h (100 = growth as untreated, 0 = no growth, -100 = all killed)
- test-context: 10 µM unless noted
Compounds without any hit were thinned out: in the full panel of roughly 83,000, 20% have a hit.
The compounds listed here are annotated with their growth.
State just the number; it will be interpreted in %.

IN: Name the reported growth value associated with the compound Cn1c(=O)c2[nH]c(C(O)C(O)C(O)C(O)CO)nc2n(C)c1=O (stereo not given)
OUT: 99.6

IN: Report growth for Cc1ccc2c(c1)C(=O)c1c-2c(OCCCN(C)C)nc2ccccc12 please.
OUT: -33

IN: What growth value was documented for this compound, CCOC(=O)c1cnc2ccc(Br)cc2c1Nc1cccc(S(=O)(=O)NC)c1 ?
OUT: 101

IN: What measured growth goes with Cc1cc(Nc2nc(N3CCN(C)CC3)nc3ccccc23)n[nH]1 ?
OUT: 61.5

IN: growth lookup needed for COc1ccc(C(=O)c2sc3nc4c(c(C(F)(F)F)c3c2N)CN(C(C)=O)CC4)cc1OC , thanks.
OUT: 95

IN: Entry under review: CN1/C(=C\C=C\C2=[N+](C)c3ccccc3C2(C)C)C(C)(C)c2ccccc21 . Reported growth?
OUT: -33.9

IN: Requested field: growth. Item: COc1cc2c(=O)n(CC3CCCCC3)c3c4cc[nH]c4ncc3c2cc1OC
OUT: 32

IN: For the compound COCCCNc1nc(NC(=O)c2ccc(F)cc2C)cc(-c2cccnc2)n1 , what growth is on record?
OUT: 105

IN: Which measured growth value corresponds to CCCCNP1(NCCCC)=NP(NCCCC)(NCCCC)=NP(NCCCC)(NCCCC)=NP(NCCCC)(NCCCC)=N1 ?
OUT: 11.9

Field: next compound
IN: Which growth is listed for CN1CCN(Cc2ccc(NC(=O)c3[nH]ncc3Nc3ncnc4sccc34)cc2)CC1 ?
OUT: 17
